B1: POU domain, class 2, transcription factor 2, residues 200 to 269; numbered along this chain, P09086 (parent)
chain: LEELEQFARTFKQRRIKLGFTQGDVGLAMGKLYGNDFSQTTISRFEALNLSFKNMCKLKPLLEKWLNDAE

Variants of: B1
ASSAY PROTOCOL: abundance fitness (aPCA) (normalised: wild type 0, dead -1); higher = more abundant; growth selection in yeast, the domain comes from the species named
CONDITION: Homo sapiens
Assignment: determine reported abundance fitness for the given variants.

[
  {
    "SEQUENCE STRING": "LEELEQFARTFSQRRIKLGFTQGDVGLAMGKLYGNDFSQTTISRFEALNLSFKNMCKLKPLLEKWLNDAE [K12S]",
    "abundance fitness": -0.022
  },
  {
    "SEQUENCE STRING": "LEELEQFARTFKQRRIKLGFTQGDVGLAMGKLYGNDFSQTTISRFEALNLSFKNMCKLKPLLEKWLNDNE [A69N]",
    "abundance fitness": 0.128
  },
  {
    "SEQUENCE STRING": "LEELEQFARTFKQRRIKLPFTQGDVGLAMGKLYGNDFSQTTISRFEALNLSFKNMCKLKPLLEKWLNDAE [G19P]",
    "abundance fitness": -0.98
  }
]

Please go through the list and note abundance fitness for each variant.
1. LEELEQFARTTKQRRIKLGFTQGDVGLAMGKLYGNDFSQTTISRFEALNLSFKNMCKLKPLLEKWLNDAE [F11T]
2. LEELGQFARTFKQRRIKLGFTQGDVGLAMGKLYGNDFSQTTISRFEALNLSFKNMCKLKPLLEKWLNDAE [E5G]
3. LEELEQFARTFKQRRVKLGFTQGDVGLAMGKLYGNDFSQTTISRFEALNLSFKNMCKLKPLLEKWLNDAE [I16V]
4. LEELEQFARTFKQRRIKLGFTQIDVGLAMGKLYGNDFSQTTISRFEALNLSFKNMCKLKPLLEKWLNDAE [G23I]
5. LEELEQFARTFKQRRIKLGFTQGDVGLAMGKLYGNDFSQTTISRFEALNLSFKNMCKLKPLLECWLNDAE [K64C]
6. LEELEQFARTFKQRRIKLGFTQGDVGLAYGKLYGNDFSQTTISRFEALNLSFKNMCKLKPLLEKWLNDAE [M29Y]
7. LEELEQFARTFKQRRIKLGFTQGDVGLAMGKLYGNDFSQTTISRFEALNLSFVNMCKLKPLLEKWLNDAE [K53V]

## Output
-0.495
-0.034
-0.039
-0.004
-0.117
-0.611
-0.014

Please go through the list and note abundance fitness for each variant.
1. LEELEQFARMFKQRRIKLGFTQGDVGLAMGKLYGNDFSQTTISRFEALNLSFKNMCKLKPLLEKWLNDAE [T10M]
2. LEELEQFARTFKQRRIKLHFTQGDVGLAMGKLYGNDFSQTTISRFEALNLSFKNMCKLKPLLEKWLNDAE [G19H]
3. LEELEQFARDFKQRRIKLGFTQGDVGLAMGKLYGNDFSQTTISRFEALNLSFKNMCKLKPLLEKWLNDAE [T10D]
4. LEELEQFARTFKQRRIKLGFTQGDVGLAMGNLYGNDFSQTTISRFEALNLSFKNMCKLKPLLEKWLNDAE [K31N]
5. LEALEQFARTFKQRRIKLGFTQGDVGLAMGKLYGNDFSQTTISRFEALNLSFKNMCKLKPLLEKWLNDAE [E3A]

## Output
[-0.011, -0.086, 0.022, -0.166, -0.123]
